Data origin: PubChem BioAssay

Listed below: z-score values for each entry.
assay: basal HepG2 mitochondrial membrane potential changes, profiling panel, cell-based, JC-1 fluorescence, 24 h, 100 nL compound (AID 1167); conditions: higher = more signal; also: test concentration not given here
Returns: the value as a bare number; no unit string appended.

Reference set, count: 2
molecule	z-score
[N-]=[N+]=Nc1ccccc1[C@@H]1OC(c2ccc(OCCCO)cc2)=N[C@]1(CCS(=O)(=O)c1ccccc1)C(N)=O	-2.73
CC(=O)n1cc(C(O)C2C=CC3C(=O)N(c4ccccc4)C(=O)C3N2Nc2ccc([N+](=O)[O-])cc2)c2ccccc21 (stereo not drawn)	-1.75

Here is the next item to consider.
stdin: GET /values?readout=z-score&item= C=CCOC(=O)[C@H]1[C@@H]2C(=O)O[C@@H](c3ccccc3)[C@@H](c3ccccc3)N2[C@@H](c2ccc(OCCOC(=O)[C@H]3C[C@H]4C(=O)N[C@@H](CCCCN(C)C)C(=O)N4[C@H]3c3ccc(O)cc3)cc2)[C@]12C(=O)Nc1ccc(I)cc12
stdout: 0.75
